Value source: PubChem BioAssay (NCI)

System: HOP-62 NSCLC
Test: NCI-60 one-dose screen, 48 h
Settings: 10 µM unless noted
Compounds without any hit were thinned out: in the full panel of roughly 83,000, 20% have a hit. Calls of active or inactive are those of the source. Rule for the calls: active = growth percent below 10; inactive = the rest.
Tick one outcome: T = active, F = inactive

# input I would be grateful if you could indicate the recorded call for `COc1cc(NC(=O)c2cc(O)c(CC=C(C)C)c(O)c2)cc2c1O[C@]1(C)CC[C@@H](O)C(C)(C)[C@H]1C2` .
# output F

# input Follow-up item: `C=C1C(=O)O[C@H]2[C@H]1CC/C(COC(=O)/C=C\C(=O)NCc1ccc(Cn3c(=O)sn(-c4ccc(OC)cc4)c3=O)cc1)=C\CC[C@@]1(C)O[C@@H]21`
# output T

# input Follow-up item: CN(C)CCC(O)(Cc1ccccc1)c1ccccc1 (stereo not drawn)
# output F

# input Follow-up item: `O=C(NCCN1CCC(O)CC1)c1cc2c(o1)C(=O)c1ccccc1C2=O`
# output T

# input Follow-up item: `N[C@@H]1CCC[C@H]1NCCCCN1C(=O)c2cccc3cccc(c23)C1=O`
# output F

# input Follow-up item: `CCOc1ccc2nc(-c3cccc(OCC(=O)NC(C)C)c3)nc(Nc3ccc(-c4cn[nH]c4)cc3)c2c1`
# output T

# input Follow-up item: `CN(C)CCCCNc1ccc(NCCCCN(C)C)c2c1C(=O)c1c(O)ccc(O)c1C2=O`
# output F

# input Follow-up item: `COc1cc(-c2cc(-c3ccc(Nc4nc(Nc5ccccc5)nc(Nc5ccc(Cl)cc5)n4)cc3)nc(N)n2)cc(OC)c1OC`
# output F

---

Test system: CAKI-1 renal
Test: NCI-60 one-dose screen, 48 h
Conditions: 10 µM unless noted
This is part of a sample that, as a whole, favours compounds with a hit. Of some 83,000 tested, about 20% had one in any assay. Activity calls are given as the source filed them. The calls were made as follows: active = growth percent below 10; inactive = the rest.
Tick one outcome: y = active, n = inactive

# input I would be grateful if you could indicate the recorded call for COc1ccc(C2CC(c3ccc4ccccc4c3)=NN2c2nc(O)c(C3=c4cc(Cl)ccc4=NC3=O)s2)cc1 (centres undefined) .
# output y

# input Follow-up item: `CNCCNc1nc2ccccc2c2c(=O)c3cc(F)ccc3oc12`
# output n

# input Follow-up item: `Cc1ccc(-n2nnc(C3=NCCc4c3[nH]c3ccc(Cl)cc43)c2C)cc1`
# output n

# input Follow-up item: `N#Cc1cccc(-c2nc3ccccn3c2NCCN2CCOCC2)c1`
# output n

# input Follow-up item: `N=C(N)c1ccc(-c2ccc(-c3ccc(Cl)cc3Cl)o2)cc1`
# output n

# input Follow-up item: `CCOc1cccnc1/C=N/NC(N)=S`
# output n

# input Follow-up item: CCCCC1COc2cccc3c(SCC(=O)N(C)c4cccc(Cl)c4)cc[n+]1c23 (centres undefined)
# output n

# input Follow-up item: `NC(=O)CC1(O)C=C(Br)C(=O)C(Br)=C1`
# output y

# input Follow-up item: `COC(=O)Nc1nc2ccc(C(=O)C3CC3)cc2[nH]1`
# output n

# input Follow-up item: `O=C(Nc1ccccn1)[C@H](O)[C@@H](O)C(=O)N1CCOCC1`
# output n

# input Follow-up item: `Cc1nc(Nc2ccc(N)cc2)c2ccccc2n1`
# output n

# input Follow-up item: `COc1ccc(/C(C)=C(\c2ccc(Cl)cc2)c2ccc(OCCN3CCCCCC3)cc2)cc1F`
# output n

# input Follow-up item: `O=C(NCc1cccnc1)c1cc(-c2csc3c(=O)cc(N4CCOCC4)oc23)cc2c1OCCO2`
# output n

# input Follow-up item: `Clc1ccc(-c2nnc(-c3ccco3)o2)cc1`
# output n

# input Follow-up item: `CCCCCCNc1cc(C)nc2ccc(OC)cc12`
# output n

# input Follow-up item: `CS(=O)(=O)c1ccc(N/N=C/c2c(-c3ccc(S(C)(=O)=O)cc3)[nH]c3ccc(F)cc23)cc1`
# output n

# input Follow-up item: `Cc1ccc(NSc2ccccc2[N+](=O)[O-])cc1`
# output n

# input Follow-up item: `Cl.[Pt].[c-]1ccccc1-c1ccccn1.c1ccc(P(c2ccccc2)C([PH+](c2ccccc2)c2ccccc2)[PH+](c2ccccc2)c2ccccc2)cc1`
# output y

# input Follow-up item: `COc1ccc(-c2cc(-c3ccc(Nc4nc(Nc5ccccc5)nc(Nc5ccc(Cl)cc5)n4)cc3)nc(N)n2)cc1`
# output n

# input Follow-up item: `C/C(Cc1ccc(Cl)cc1)=C(/c1ccc(Cl)cc1)c1ccc(OCCN(C)C)cc1`
# output n

# input Follow-up item: `C=CCO[C@H]1CO[C@H]2[C@@H]1OC[C@@H]2Oc1ccc(Nc2ccnc(Nc3ccc(O[C@H]4CO[C@H]5[C@@H]4OC[C@@H]5OCC=C)c(Cl)c3)n2)cc1Cl`
# output y

# input Follow-up item: `NC(=S)N/N=C/C(=O)O`
# output n

# input Follow-up item: `N#Cc1c(NC(=O)c2ccccc2I)sc2c1CCCC2`
# output n

# input Follow-up item: `CC(C)OCCCNCC(=O)Nc1ccc(S(=O)(=O)c2ccc(NC(=O)CNCCCOC(C)C)cc2)cc1`
# output n

# input Follow-up item: `COc1ccc(-c2nc3ncccn3c2/C=C/C(=O)c2cc(OC)c(OC)c(OC)c2)cc1`
# output y

# input Follow-up item: `Cc1cc(NS(=O)(=O)c2ccccc2)c(OS(=O)(=O)c2ccccc2)cc1C`
# output n

# input Follow-up item: CC(C)CCC[C@@H](C)[C@H]1CCC2C3=CCC4C(=O)C=CC(=O)C4C3CC[C@@]21C (some centres undefined)
# output y

# input Follow-up item: `COc1cccc(/C=C2\COc3ccc(O)cc3C2=O)c1OC`
# output n

# input Follow-up item: `N=C(N)c1ccc(-c2ccc(-c3ccc(Cl)c(Cl)c3)o2)cc1`
# output n

# input Follow-up item: `COc1ccc(Nc2ncc(Br)c(NCCCNC(=O)C3CCC3)n2)cc1`
# output y

# input Follow-up item: `Cc1c2c(cn1Cc1ccccc1)CCc1cn[nH]c1-2`
# output n

# input Follow-up item: `NC(N)=N/N=C/CO`
# output n

# input Follow-up item: `COc1ccc(-n2nnc(C(=O)NCCc3c[nH]c4ccc(F)cc34)c2C)cc1`
# output n

# input Follow-up item: `CC(=O)c1ccc2c(c1)CCN2`
# output n

# input Follow-up item: O=C1CC(c2ccc3c(c2)OCO3)Nc2cc3c(cc21)OCO3 (centres undefined)
# output n

# input Follow-up item: `CO[C@H]1/C=C/O[C@@]2(C)Oc3c(C)c(O)c4c(c3C2=O)C(=O)C(/C=N/N(c2ccccc2)c2ccccc2)=C(NC(=O)/C(C)=C\C=C\[C@H](C)[C@H](O)[C@@H](C)[C@@H](O)[C@@H](C)[C@H](OC(C)=O)[C@@H]1C)C4=O`
# output y

# input Follow-up item: `CCCCN(Cc1ccc(C(=O)NO)cc1)C(=O)Nc1ccc(OCCCCCCCCCn2cc(CCCCC(=O)N[C@H](C(=O)N3C[C@H](O)C[C@H]3C(=O)NCc3ccc(-c4scnc4C)cc3)C(C)(C)C)nn2)cc1`
# output n

# input Follow-up item: C=C1c2c(C)nn(-c3ccc(S(N)(=O)=O)cc3)c2N(C)C23CC1C1(C)c4c(C)nn(-c5ccc(S(N)(=O)=O)cc5)c4N(C)C(C)(CC12)C3 (centres undefined)
# output n

# input Follow-up item: `COc1ccc(-c2c(N)n[nH]c2-c2ccccc2O)cc1OC`
# output n

---

Tested on: HT29 colon
Assay: NCI-60 one-dose screen, 48 h
Conditions: 10 µM unless noted
The panel holds about 83,000 compounds, 20% with a hit somewhere; the sample as a whole holds those more often. Calls of active or inactive are those of the source. The calls were made as follows: active = growth percent below 10; inactive = the rest.
Tick one outcome: yes (active), no (inactive)

# input I would be grateful if you could indicate the recorded call for CN(C)CCC(O)(Cc1ccccc1)c1ccccc1 (centres undefined) .
# output no

# input Follow-up item: `CC(C)N(CCOC(=O)Nc1ccccc1Cl)C(C)C`
# output no

# input Follow-up item: `COc1ccc2cc(-c3ccc(C(=O)NN)c(C)n3)ccc2c1`
# output no

# input Follow-up item: `Cc1nn(Cc2ccccc2)cc1C(=O)Nc1sc2c(c1C(N)=O)CCC(=O)C2`
# output no

# input Follow-up item: `COc1cc(-c2cc(-c3ccc(Nc4nc(Nc5ccccc5)nc(Nc5ccc(Cl)cc5)n4)cc3)nc(N)n2)cc(OC)c1OC`
# output no

# input Follow-up item: `N=C(N)c1ccc(-c2ccc(-c3ccc(Cl)cc3Cl)o2)nc1`
# output yes

# input Follow-up item: `O=[N+]([O-])c1ccc2[nH]cc(-c3c4ccsc4cc4[nH]c5ccc([N+](=O)[O-])cc5c34)c2c1`
# output yes

# input Follow-up item: `CNC(=O)c1cc(Oc2ccc3nc(NC(=O)Nc4cc(C(F)(F)F)cc(C(F)(F)F)c4)sc3c2)ccn1`
# output yes

# input Follow-up item: `C[C@@H]1C(=O)N(C[C@@H](Cc2ccccc2)NC(=O)OCc2ccccc2)[C@]1(Cc1ccccc1)C(=O)OCc1ccccc1`
# output no
